All figures here come from PubChem BioAssay (NCI).

System: NCI/ADR-RES ovarian
protocol-summary: NCI tumour cell line growth inhibition, 48 h; in the data active means GI50 below about 0.43 µM; inactive means the rest
Please state which outcome applies, choosing from active, inactive

In this assay, the call recorded for "COC(=O)[C@H](C)NC(=O)NC(=O)NC(=O)CI" was what?
inactive

// return assay outcome for "COC1=CC(=O)c2nc(-c3cccc(C)n3)[nH]c2C1=O"
inactive

# lookup: test call for "COc1ccccc1CNCCCN1C(=O)c2ccc3c4c(ccc(c24)C1=O)C(=O)N(CCCOCCCCOCCCN)C3=O"
inactive

Test call, this compound: "CN1C/C=C\CCOc2cccc(c2)-c2ccnc(n2)Nc2cccc(c2)C1"
active

// return assay outcome for "C=C1C(=O)O[C@H]2[C@H]1CC/C(COC(=O)C(=O)c1cn(Cc3ccccc3)c3ccccc13)=C\CC[C@@]1(C)O[C@@H]21"
inactive

Identify the outcome logged in this assay for the compound shown: CCCCC(O)(c1ccc(Cl)cc1)C(CN1CCOCC1)c1ccc(Cl)cc1 (stereo not drawn)
inactive

I would be grateful if you could indicate the recorded call for "Cc1cc(C(=O)Nc2ncc(Cc3cccc(C(F)(F)F)c3)s2)c2ccccc2n1" .
inactive

Check the results log: what was the call for c1cc(CNC23CC4CC(CC(C4)C2)C3)cc(C[N+](Cc2cccc(CNC34CC5CC(CC(C5)C3)C4)c2)(Cc2cccc(CNC34CC5CC(CC(C5)C3)C4)c2)Cc2cccc(CNC34CC5CC(CC(C5)C3)C4)c2)c1 (stereo not drawn) ?
inactive

* * *

System: SK-MEL-5 melanoma
protocol-summary: NCI tumour cell line growth inhibition, 48 h; in the data active = GI50 below about 0.43 µM; inactive = the rest
Would you mind answering with one of these outcomes? active, inactive

Hello, I am checking results. What call was entered for "C[C@@]12CC=C3c4nc(Nc5cccc(O)c5)sc4CC[C@]3(C)[C@H]1CC[C@]1(C)C(=O)CC[C@@H]21" ?
inactive

Dear all, I need the recorded test outcome for "COc1ccc(-c2n[nH]nc2-c2cc(OC)c(OC)c(OC)c2)cc1" , thank you.
active

For "COc1ccc(Cn2cc3c(c2-c2ccccc2)CC(C)(C)c2cnoc2-3)cc1" , what call appears in the results of this test?
inactive

# outcome recorded in this test, key = "COc1nc2ccccc2cc1-c1nc2c(cnn2-c2ccc(Br)cc2)c(=O)[nH]1"
active

I would be grateful if you could indicate the recorded call for "O=C(NC1=CC(=O)c2ccccc2C1=O)c1ccccc1" .
active

How was c1cc(CNC23CC4CC(CC(C4)C2)C3)cc(C[N+](Cc2cccc(CNC34CC5CC(CC(C5)C3)C4)c2)(Cc2cccc(CNC34CC5CC(CC(C5)C3)C4)c2)Cc2cccc(CNC34CC5CC(CC(C5)C3)C4)c2)c1 (centres undefined) classified in this test?
inactive

Short answer needed: outcome of this test for "COc1ccc(Nc2c3ccccc3nc3occc23)cc1" ?
inactive

Outcome logged for "Cc1cccc(N2CCN(C(=S)c3ccc4c(c3)OCO4)CC2)c1" in this assay:
inactive

I'd appreciate the recorded outcome for "COc1ccccc1CNCCCN1C(=O)c2ccc3c4c(ccc(c24)C1=O)C(=O)N(CCCOCCCCOCCCN)C3=O" from this test.
active

* * *

Test system: RPMI-8226 leukemia
protocol-summary: NCI tumour cell line growth inhibition, 48 h
Returns rule met if the recorded TGI is greater than or equal to 40 µM, and rule not met otherwise.

Threshold query (TGI >= 40 µM) on CC(C)=CCC/C(C)=C/C=C/C(C)=C/C=C/C(C)=C/C=C/C=C(C)/C=C/C=C(C)/C=C/[C@H]1C(C(C)(C)O)CC[C@]1(C)O (some centres not stated)
rule met

Dear colleague, could you confirm whether N#CC(NNC(=O)Cc1ccccc1)c1c(O)ccc2ccccc12 (configuration not stated) has TGI at or above 40 µM?
rule met

Please indicate if the recorded TGI for "O=C(O)Cc1cccc2c(=O)c3ccccc3oc12" meets or exceeds 40 µM.
rule met

Reported TGI reaches at least 40 µM for "N=C1C(c2nc3ccccc3s2)=C(O)CN1c1cc(C(F)(F)F)ccc1Cl" ?
rule met

Reported TGI reaches at least 40 µM for "COc1ccc(C(=C(Cl)c2ccccc2)c2ccc(OC)cc2)cc1" ?
rule met

Would you say CC(=O)OCC12C(=O)C[C@@H](C)C3(CC(c4ccoc4)OC3=O)C1CCC(OC(C)=O)C21CO1 (some centres not stated) shows TGI at minimum 40 µM?
rule met

Hello, I need to know if "NN/C(=N\S(=O)(=O)c1cc2ccccc2s1)Nc1ccc(Cl)cc1" has measured TGI not below 40 µM. Thanks!
rule not met

Check if TGI >= 40 µM (inclusive). Item: "CCOC(=O)c1nc2ccc(C(F)(F)F)cc2nc1NCc1cc(OC)c(OC)c(OC)c1"
rule met

Is the recorded value of TGI equal to or greater than 40 µM for this molecule? "Cc1cc(C(=O)Nc2ncc(Cc3cccc(C(F)(F)F)c3)s2)c2ccccc2n1"
rule met

Is it the case that "COc1cc2c(c(OC)c1OC)-c1ccc(OC)c(=O)cc1[C@@H](NC(=O)c1ccccc1)CC2" has TGI reaching or exceeding 40 µM?
rule met

Threshold query (TGI >= 40 µM) on CCOC(=O)c1cc(C(O)P2(=O)N(CC(C)(C)C)[C@@H]3CCCC[C@H]3N2CC(C)(C)C)cn1C(=O)OC(C)(C)C (some centres not stated)
rule not met

Is the recorded value of TGI equal to or greater than 40 µM for this molecule? "Oc1ccccc1C(Sc1nc2ccccc2s1)Sc1nc2ccccc2s1"
rule met

Could you tell me if the measured TGI of O=C(Cc1ccccc1)NN1C(=O)C(Cl)C1c1cc(Br)ccc1O (configuration not stated) reaches 40 µM or more?
rule met

Test whether the molecule COC1(OC)C2(Cl)C(Cl)=C(Cl)C1(Cl)C1C=CC=CC12 (configuration not stated) records TGI of 40 µM or higher.
rule met

# bool: TGI of C1=CC2SSSC2C1 (configuration not stated) >= 40 µM
rule met

In plain terms: is recorded TGI at least 40 µM for "O=S(=O)(N=S(c1ccccc1)c1ccccc1)c1ccccc1" ?
rule met

Is the recorded value of TGI equal to or greater than 40 µM for this molecule? NCC1Nc2ccccc2[C@@H](O)C1O (some centres not stated)
rule met

Check if TGI >= 40 µM (inclusive). Item: COc1ccc(C2OC[C@H]3O[C@@H](OCc4ccccc4)[C@H](O)[C@@H](O)[C@@H]3O2)cc1 (some centres not stated)
rule met

Decide: is the reported value of TGI for "COCN(CCC1=CCCCC1)C(=O)OC" equal to or greater than 40 µM?
rule met

Is TGI at least 40 µM? Consider COC1=C(C)C(=O)c2c(c(COC(N)=O)c3n2CC2C3N2C)C1=O (configuration not stated)
rule not met

# check: TGI of CC(C)(C)OC(=O)NC(Cc1ccc(OCc2ccccc2)cn1)C(=O)N1CCCCC1 (configuration not stated) is greater than or equal to 40 µM
rule met

Check if TGI >= 40 µM (inclusive). Item: "CC(C)[Si](OC1=C(C(=O)N(C)c2cccc(Cl)c2)CCCC1)(C(C)C)C(C)C"
rule met

Given C[C@@H]1CC(=O)C2CCCC1C2=O (some centres not stated) , state whether its TGI is at least 40 µM.
rule met

Threshold query (TGI >= 40 µM) on N=C(N)c1ccc(C(NC(=O)CNS(=O)(=O)c2ccc3ccccc3c2)P(=O)(Oc2ccccc2)Oc2ccccc2)cc1 (configuration not stated)
rule met

Form field: TGI at least 40 µM? Entry: "O=c1[nH]nc(-c2ccccc2)c2[nH]c3c4ccccc4ccc3c12"
rule not met

Hello, I need to know if "O=C1C=C(C2=CC(=O)C(=O)c3ccccc32)c2ccccc2C1=O" has measured TGI not below 40 µM. Thanks!
rule met

Is TGI at least 40 µM? Consider Cn1c(=O)c(C(c2ccc([N+](=O)[O-])cc2)c2c(O)c3ccccc3n(C)c2=O)cc2ccccc21 (configuration not stated)
rule met

Given the entry CCCCC(O)(c1ccc(Cl)cc1)C(CN1CCOCC1)c1ccc(Cl)cc1 (configuration not stated) , answer whether its TGI meets or surpasses 40 µM.
rule not met

Given OC[C@H]1CCCC1O (some centres not stated) , state whether its TGI is at least 40 µM.
rule met

Does COC(C(O)CO)C(O)C(O)C(=O)NNc1ccccc1 (configuration not stated) have a reported TGI of at least 40 µM?
rule met

Decide: TGI of c1cc(CNC23CC4CC(CC(C4)C2)C3)cc(C[N+](Cc2cccc(CNC34CC5CC(CC(C5)C3)C4)c2)(Cc2cccc(CNC34CC5CC(CC(C5)C3)C4)c2)Cc2cccc(CNC34CC5CC(CC(C5)C3)C4)c2)c1 (configuration not stated) >= 40 µM?
rule not met

Is TGI at least 40 µM? Consider "Cc1cccc(N=NC(=O)NNc2cccc(C)c2C)c1C"
rule met

Given "CCN(CC)CCNc1nc2ccc([N+](=O)[O-])cc2[n+]([O-])n1" , state whether its TGI is at least 40 µM.
rule met

Could you tell me if the measured TGI of Cc1cn(C2CC(N(O)Cc3ccccc3)C(CO[Si](C)(C)C(C)(C)C)O2)c(=O)[nH]c1=O (configuration not stated) reaches 40 µM or more?
rule met

Is the recorded value of TGI equal to or greater than 40 µM for this molecule? "C[C@@]12CC=C3c4nc(Nc5cccc(O)c5)sc4CC[C@]3(C)[C@H]1CC[C@]1(C)C(=O)CC[C@@H]21"
rule not met

Form field: TGI at least 40 µM? Entry: CSc1ncnc2c1ncn2C1CC(Oc2ccc(C)cc2)C(COc2ccc(C)cc2)O1 (configuration not stated)
rule met

Determine whether measured TGI meets or exceeds 40 µM for "CON(C)C(=O)CNC(=O)OCC1c2ccccc2-c2ccccc21"
rule met

Could you please find out whether "O=C(O)c1ccc([N+](=O)[O-])c2cc3cnccc3nc12" has TGI that meets 40 µM or exceeds it?
rule met
